study.target: Serotonin (5-HT) receptor (Rattus norvegicus) (UniProt P35563+P35365+P32305+P31388+Q9JJ16+P28564+P30994+Q62758+P08909+P14842+P30940+P35364+P19327+P28565)
method: Inhibition of 5-HT receptor in rat stomach fundus relative to methysergide
Type: tissue-based
Entries and their 5-HT antagonist potency relative to methysergide values follow.
parameter: 5-HT antagonist potency relative to methysergide (%)

molecular.string	experimental.result
COc1ccc([C@@H]2C=C3c4cccc5[nH]cc(c45)C[C@H]3N(C)C2)cc1.O=C(O)/C=C\C(=O)O	100
CN1C[C@@H](c2ccccc2)C=C2c3cccc4[nH]cc(c34)C[C@H]21.O=C(O)/C=C\C(=O)O	10
CN1C[C@H](c2ccccc2)C=C2c3cccc4[nH]cc(c34)C[C@H]21.O=C(O)/C=C\C(=O)O	50
CN1C[C@H](c2ccc3c(c2)OCO3)C=C2c3cccc4[nH]cc(c34)C[C@H]21	50

// data source = ChEMBL document CHEMBL3243961
